B1: glmS ribozyme (parent)
chain: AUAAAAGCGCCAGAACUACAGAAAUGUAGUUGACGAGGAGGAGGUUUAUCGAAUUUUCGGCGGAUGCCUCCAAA

Variants of: B1
assayProtocol: self-cleavage kobs at 640 uM GlcN6P; higher = faster cleavage; RNA array
conditionContext: with glucosamine-6-phosphate
Variants at the floor of the assay were thinned out.
recordedMetric: self-cleavage kobs at 640 uM GlcN6P

Can you look up the measured self-cleavage kobs at 640 uM GlcN6P of G13U G41U C61G C71G for me?
< 1e-05 s⁻¹

Please report the recorded self-cleavage kobs at 640 uM GlcN6P for C34A C50G .
0.000448 s⁻¹

Report self-cleavage kobs at 640 uM GlcN6P for A42G G63A please.
< 1e-05 s⁻¹

GET /values?readout=self-cleavage kobs at 640 uM GlcN6P&item= C11U A53U U54C C58A
< 1e-05 s⁻¹

Look up self-cleavage kobs at 640 uM GlcN6P for this variant: G29C G43C C70G
< 1e-05 s⁻¹

Any idea what self-cleavage kobs at 640 uM GlcN6P was measured for C34U G43U G59C ?
< 1e-05 s⁻¹

Quick one: self-cleavage kobs at 640 uM GlcN6P of C8A C34U A36U G59U G62A ?
< 1e-05 s⁻¹

Please look up its self-cleavage kobs at 640 uM GlcN6P: G44A A53C
4.9e-05 s⁻¹

self-cleavage kobs at 640 uM GlcN6P for A53C G63A ?
< 1e-05 s⁻¹

Look up self-cleavage kobs at 640 uM GlcN6P for this variant: G9C G40C U49G
< 1e-05 s⁻¹

Need self-cleavage kobs at 640 uM GlcN6P, item C10A C61G C67G
0.00401 s⁻¹

For the variant shown here, A15G C70G , give the reported self-cleavage kobs at 640 uM GlcN6P.
0.000303 s⁻¹

Field request: self-cleavage kobs at 640 uM GlcN6P | item: A15C U30G
0.0305 s⁻¹

What value of self-cleavage kobs at 640 uM GlcN6P has been recorded for this entry: G13C A15G
4.12e-05 s⁻¹

What value of self-cleavage kobs at 640 uM GlcN6P has been recorded for this entry: U45C G60C
< 1e-05 s⁻¹

For A12U G13U U46G , what is its reported self-cleavage kobs at 640 uM GlcN6P?
< 1e-05 s⁻¹

self-cleavage kobs at 640 uM GlcN6P lookup needed for C8U A64U , thanks.
< 1e-05 s⁻¹

Query: self-cleavage kobs at 640 uM GlcN6P; subject: G41C G66U
< 1e-05 s⁻¹

Reported self-cleavage kobs at 640 uM GlcN6P for G51A A53C : what is it?
< 1e-05 s⁻¹

# query: self-cleavage kobs at 640 uM GlcN6P of entry C10U U31C U49C
< 1e-05 s⁻¹

Fill blank: measured self-cleavage kobs at 640 uM GlcN6P of the variant G43C U54A G60C is ____.
< 1e-05 s⁻¹

For G32U G59C , what is its reported self-cleavage kobs at 640 uM GlcN6P?
< 1e-05 s⁻¹

Sourced from the supplement of paper PMC7125110
